Attribution: patent US20150140169

experimental_system: T1, alpha-s1 casein from Bos taurus
T1 chain: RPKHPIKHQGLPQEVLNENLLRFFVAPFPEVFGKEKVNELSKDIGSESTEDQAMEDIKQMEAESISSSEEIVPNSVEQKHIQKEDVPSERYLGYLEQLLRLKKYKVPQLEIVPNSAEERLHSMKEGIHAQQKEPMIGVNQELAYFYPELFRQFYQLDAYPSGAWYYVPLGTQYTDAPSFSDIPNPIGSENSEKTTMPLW
readout_label: αs1-I CN, 24 hours, 11° C. (Volume)
Respond with the bare value in Volume.

Which αs1-I CN, 24 hours, 11° C. reading was recorded for the protein camel chymosin variant #161 (L295M) (protein) GKVAREPLTSYLDSQYFGKIYIGTPPQEFTVVFDTGSSDLWVPSIYCKSNVCKNHHRFDPRKSSTFRNLGKPLSIHYGTGSMEGFLGYDTVTVSNIVDPNQTVGLSTEQPGEVFTYSEFDGILGLAYPSLASEYSVPVFDNMMDRHLVARDLFSVYMDRNGQGSMLTLGAIDPSYYTGSLHWVPVTLQQYWQFTVDSVTINGVAVACVGGCQAILDTGTSVLFGPSSDILKIQMAIGATENRYGEFDVNCGNLRSMPTVVFEINGRDYPLSPSAYTSKDQGFCTSGFQGDNNSEMWILGDVFIREYYSVFDRANNRVGLAKAI ?
2.23e+07

Which αs1-I CN, 24 hours, 11° C. reading was recorded for the protein camel chymosin variant #151 (D290A) (protein) GKVAREPLTSYLDSQYFGKIYIGTPPQEFTVVFDTGSSDLWVPSIYCKSNVCKNHHRFDPRKSSTFRNLGKPLSIHYGTGSMEGFLGYDTVTVSNIVDPNQTVGLSTEQPGEVFTYSEFDGILGLAYPSLASEYSVPVFDNMMDRHLVARDLFSVYMDRNGQGSMLTLGAIDPSYYTGSLHWVPVTLQQYWQFTVDSVTINGVAVACVGGCQAILDTGTSVLFGPSSDILKIQMAIGATENRYGEFDVNCGNLRSMPTVVFEINGRDYPLSPSAYTSKDQGFCTSGFQGANNSELWILGDVFIREYYSVFDRANNRVGLAKAI ?
3.22e+07
